- TARGET: DNA polymerase theta (Homo sapiens)
- ASSAY_OVERVIEW: Inhibition of POLQ (unknown origin) incubated for 15 mins in presence of ATP and NADPH by absorbance based analysis
OBSERVATION_TYPE: IC50

| SMILES_REPR | TARGET | IC50 |
| --- | --- | --- |
| COc1ccccc1-c1cc(C)ncc1C(=O)Nc1nnc(OCc2ccc(Cl)cn2)s1 | DNA polymerase theta (Homo sapiens) | ≤ 0.2 µM |

// next entry
(Q) Dear colleague, I am looking for the recorded IC50 of the following compound: `COc1cnc(Cl)cc1-c1cc(C)ncc1C(=O)Nc1nnc(OCc2ccc(Cl)cn2)s1`
(A) ≤ 0.2 µM

###

- TARGET: DNA polymerase theta (Homo sapiens)
- ASSAY_OVERVIEW: Inhibition of POLQ PD (unknown origin) (1819 to 2590 residues) incubated for 15 mins by luminescence based analysis
OBSERVATION_TYPE: IC50 (µM)
One number for each entry, in µM.

(Q) Fill in the recorded IC50 for this molecule, with DNA polymerase theta (Homo sapiens) as test system: `Cc1nc(SCC(=O)N(C)c2ccccc2)c(C#N)c(C)c1Cl`
(A) 0.2

###

- TARGET: DNA polymerase theta (Homo sapiens, UniProt O75417)
- Sequence (O75417 whole entry, the tested form may be a part): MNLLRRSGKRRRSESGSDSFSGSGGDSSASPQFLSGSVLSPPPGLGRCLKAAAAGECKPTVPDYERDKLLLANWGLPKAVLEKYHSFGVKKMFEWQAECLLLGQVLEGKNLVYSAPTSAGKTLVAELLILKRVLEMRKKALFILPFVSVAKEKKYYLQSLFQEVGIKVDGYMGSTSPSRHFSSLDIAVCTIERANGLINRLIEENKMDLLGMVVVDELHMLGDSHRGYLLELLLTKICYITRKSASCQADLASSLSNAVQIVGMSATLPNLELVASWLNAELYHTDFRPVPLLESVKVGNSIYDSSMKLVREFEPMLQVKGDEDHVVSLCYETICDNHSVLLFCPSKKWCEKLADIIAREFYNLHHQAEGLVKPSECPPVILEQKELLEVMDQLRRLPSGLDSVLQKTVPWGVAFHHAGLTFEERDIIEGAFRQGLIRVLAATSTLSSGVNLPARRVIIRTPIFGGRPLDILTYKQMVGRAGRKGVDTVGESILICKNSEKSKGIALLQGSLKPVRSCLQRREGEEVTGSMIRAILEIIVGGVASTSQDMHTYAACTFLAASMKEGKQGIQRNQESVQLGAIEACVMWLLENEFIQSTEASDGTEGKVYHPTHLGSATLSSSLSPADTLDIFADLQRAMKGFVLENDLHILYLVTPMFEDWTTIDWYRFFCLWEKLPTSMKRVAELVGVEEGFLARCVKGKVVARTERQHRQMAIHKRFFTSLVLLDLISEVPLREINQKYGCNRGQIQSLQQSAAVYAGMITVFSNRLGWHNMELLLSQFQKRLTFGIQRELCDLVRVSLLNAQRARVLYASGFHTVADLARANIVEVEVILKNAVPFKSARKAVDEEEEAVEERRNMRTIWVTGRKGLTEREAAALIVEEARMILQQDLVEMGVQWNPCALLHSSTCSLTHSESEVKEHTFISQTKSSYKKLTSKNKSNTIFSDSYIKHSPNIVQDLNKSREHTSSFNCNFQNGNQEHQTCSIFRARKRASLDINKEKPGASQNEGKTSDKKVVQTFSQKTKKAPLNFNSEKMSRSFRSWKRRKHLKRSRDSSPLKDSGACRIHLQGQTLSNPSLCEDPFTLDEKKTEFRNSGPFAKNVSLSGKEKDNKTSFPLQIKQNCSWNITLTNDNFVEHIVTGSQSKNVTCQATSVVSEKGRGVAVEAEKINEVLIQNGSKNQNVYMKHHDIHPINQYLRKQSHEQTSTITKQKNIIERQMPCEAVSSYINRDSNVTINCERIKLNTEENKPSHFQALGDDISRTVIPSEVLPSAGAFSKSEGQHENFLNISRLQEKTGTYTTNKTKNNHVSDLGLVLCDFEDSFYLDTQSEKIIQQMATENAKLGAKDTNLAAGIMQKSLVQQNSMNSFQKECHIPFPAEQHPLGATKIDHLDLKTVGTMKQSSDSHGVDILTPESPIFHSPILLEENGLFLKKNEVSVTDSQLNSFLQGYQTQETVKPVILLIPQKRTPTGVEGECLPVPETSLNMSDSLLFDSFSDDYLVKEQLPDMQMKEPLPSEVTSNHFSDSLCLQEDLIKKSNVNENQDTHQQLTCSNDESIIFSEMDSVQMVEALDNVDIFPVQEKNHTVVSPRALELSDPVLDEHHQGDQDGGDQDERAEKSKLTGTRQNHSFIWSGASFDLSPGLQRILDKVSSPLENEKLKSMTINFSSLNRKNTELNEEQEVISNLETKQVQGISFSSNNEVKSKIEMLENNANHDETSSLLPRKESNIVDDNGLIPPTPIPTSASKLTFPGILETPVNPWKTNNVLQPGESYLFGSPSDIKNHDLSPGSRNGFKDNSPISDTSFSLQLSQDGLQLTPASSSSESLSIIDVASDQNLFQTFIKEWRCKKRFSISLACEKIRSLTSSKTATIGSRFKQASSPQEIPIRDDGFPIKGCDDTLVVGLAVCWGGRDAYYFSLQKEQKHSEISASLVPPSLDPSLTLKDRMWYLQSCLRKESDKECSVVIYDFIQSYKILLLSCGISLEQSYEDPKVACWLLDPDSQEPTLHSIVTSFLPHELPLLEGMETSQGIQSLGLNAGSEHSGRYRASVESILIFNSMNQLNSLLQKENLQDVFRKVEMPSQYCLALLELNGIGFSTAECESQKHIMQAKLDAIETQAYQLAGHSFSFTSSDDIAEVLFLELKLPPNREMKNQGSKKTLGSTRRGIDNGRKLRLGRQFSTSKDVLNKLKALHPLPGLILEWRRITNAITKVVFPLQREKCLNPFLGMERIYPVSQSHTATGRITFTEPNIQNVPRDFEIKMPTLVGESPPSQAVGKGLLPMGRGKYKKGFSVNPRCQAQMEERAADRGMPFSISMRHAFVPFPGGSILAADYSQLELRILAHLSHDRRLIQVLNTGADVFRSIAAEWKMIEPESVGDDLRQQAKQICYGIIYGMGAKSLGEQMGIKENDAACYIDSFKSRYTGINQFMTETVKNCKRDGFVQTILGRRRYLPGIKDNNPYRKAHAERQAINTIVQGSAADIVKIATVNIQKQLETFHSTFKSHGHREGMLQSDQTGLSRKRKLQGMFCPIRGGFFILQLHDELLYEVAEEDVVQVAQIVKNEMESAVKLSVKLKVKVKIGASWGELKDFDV
- ASSAY_OVERVIEW: Inhibition of N-terminal/C-termianl Flag-tagged POLQ (unknown origin) (2 to 2590 residues) expressed in baculovirus incubated for 30 mins by fluorescence based analysis
For each of the molecules below, state its IC50.
Numbers only, in nM.

| MOLECULE | OBSERVATION_TYPE | MEASURE_UNIT | READOUT_NUMBER |
| --- | --- | --- | --- |
| Cc1cc(-c2nc(NC(=O)N[C@H]3CCCNC3)cs2)ccc1OC[C@]1(C)CCOC1 | IC50 | nM | 7 |

(Q) Would you mind telling me what IC50 value was observed for Cc1ccc(NC(=O)Nc2cncc(-c3ccc(OCC4(C)CCOC4)c(C)c3)n2)cn1 (configuration not stated) ?
(A) 2

###

- Tested on: MCF7
- ASSAY_OVERVIEW: Antiproliferative activity against human MCF7 cells assessed as inhibition of cell growth incubated for 6 days by CellTiter-Glo assay
- Type: functional, cell-based
- MEASUREMENT_CONDITIONS: MCF7, 144 h
OBSERVATION_TYPE: IC50 (nM)
One number for each entry, in nM.

(Q) Form field - read-out: IC50; system: MCF7; submitted item: `Cc1c(OC2CCN(C)CC2)ccc2cc(NC(=O)Nc3ccc(C(F)(F)F)cc3)c(=O)oc12`
(A) 460

Measured values drawn from ChEMBL document CHEMBL5338761 for this set.
